Let's look at some compounds and their measured IC50.
test system: A375 malignant melanoma cancer cells; experiment: AlamarBlue viability and proliferation assay of A375 malignant melanoma cancer cells; format: cell-based, human; settings: concentration range 1.0 μM-10.0 μM, viability as percentage of 1.0% DMSO vehicle control, quadratic equation
parameter: IC50 (µM)

| smiles.code | measurement.unit | measured.number |
| --- | --- | --- |
| O=[N+]([O-])[O-].[Ag+].c1ccc(P(c2ccccc2)c2ccccc2)cc1.c1ccc(P(c2ccccc2)c2ccccc2)cc1.c1ccc(P(c2ccccc2)c2ccccc2)cc1 | µM | 6.77 |
| [Br][Ag]([PH](c1ccccc1)(c1ccccc1)c1ccccc1)([PH](c1ccccc1)(c1ccccc1)c1ccccc1)[PH](c1ccccc1)(c1ccccc1)c1ccccc1 | µM | 5.16 |
